Protein target, amino acids: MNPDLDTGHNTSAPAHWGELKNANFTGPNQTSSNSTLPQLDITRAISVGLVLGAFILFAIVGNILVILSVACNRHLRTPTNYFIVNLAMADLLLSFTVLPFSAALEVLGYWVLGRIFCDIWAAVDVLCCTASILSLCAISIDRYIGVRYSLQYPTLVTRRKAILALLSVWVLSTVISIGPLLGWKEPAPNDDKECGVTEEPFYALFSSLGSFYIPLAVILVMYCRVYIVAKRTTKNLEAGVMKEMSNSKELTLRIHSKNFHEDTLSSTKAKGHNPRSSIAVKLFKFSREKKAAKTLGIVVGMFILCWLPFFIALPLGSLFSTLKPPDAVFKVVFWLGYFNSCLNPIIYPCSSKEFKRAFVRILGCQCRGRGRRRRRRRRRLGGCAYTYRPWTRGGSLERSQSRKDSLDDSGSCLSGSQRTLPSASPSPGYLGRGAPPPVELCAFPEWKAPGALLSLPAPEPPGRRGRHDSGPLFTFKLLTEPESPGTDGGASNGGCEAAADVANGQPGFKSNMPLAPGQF
value_type: pIC50
Keep it numeric: pIC50 is minus log10 of the concentration in mol/L.

Qu. I have this compound here, COc1ccccc1N1CCN(CC(O)CNC(=O)c2cccnc2Oc2ccccc2)CC1 (stereo not drawn) [Compound 32] , and I need its recorded pIC50.
Ans. 5.80

Qu. I have this compound here, CC(C)Oc1ccccc1N1CCN(CC(O)CNC(=O)c2cccnc2Oc2cccc(N(C)C)c2)CC1 (stereo not drawn) [Compound 38] , and I need its recorded pIC50.
Ans. 6.01

Qu. I have this compound here, CC(C)Oc1ccccc1N1CCN(C[C@H](O)CNC(=O)c2cccnc2Oc2ccccc2)CC1 [Compound 35] , and I need its recorded pIC50.
Ans. 6.05

Qu. I have this compound here, CC(C)Oc1ccccc1N1CCN(CC(O)CNC(=O)c2cccnc2Nc2ccccc2)CC1 (stereo not drawn) [Compound 31] , and I need its recorded pIC50.
Ans. 6.13

Qu. I have this compound here, CC(C)Oc1ccccc1N1CCN(CC(=O)CNC(=O)c2cccnc2Oc2ccccc2)CC1 [Compound 17] , and I need its recorded pIC50.
Ans. 6.05

Qu. I have this compound here, Cc1ccc(Oc2ncccc2C(=O)NCC(O)CN2CCN(c3ccccc3OC(C)C)CC2)cc1 (stereo not drawn) [Compound 41] , and I need its recorded pIC50.
Ans. 6.03

====

Target chain: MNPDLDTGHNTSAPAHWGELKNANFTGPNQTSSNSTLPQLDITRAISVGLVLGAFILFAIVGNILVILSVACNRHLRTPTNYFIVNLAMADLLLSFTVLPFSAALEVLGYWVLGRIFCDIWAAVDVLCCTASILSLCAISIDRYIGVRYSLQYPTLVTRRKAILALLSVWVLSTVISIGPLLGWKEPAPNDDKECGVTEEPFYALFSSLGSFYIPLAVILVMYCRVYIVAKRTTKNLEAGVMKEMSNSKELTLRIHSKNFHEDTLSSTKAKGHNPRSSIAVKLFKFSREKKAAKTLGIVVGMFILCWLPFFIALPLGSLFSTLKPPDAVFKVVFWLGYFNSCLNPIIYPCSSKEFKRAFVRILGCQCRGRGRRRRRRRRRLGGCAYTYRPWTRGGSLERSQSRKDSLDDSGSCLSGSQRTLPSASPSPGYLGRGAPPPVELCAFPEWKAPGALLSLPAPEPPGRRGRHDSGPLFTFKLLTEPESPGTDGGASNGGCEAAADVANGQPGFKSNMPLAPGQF
value_type: IC50 (nM)
Reply with just the number (in nM).

Qu. I have this compound here, Cc1ccc(Oc2ncccc2C(=O)NC[C@H](O)CN2CCN(c3ccccc3OC(C)C)CC2)cc1 , and I need its recorded IC50.
Ans. 290

Qu. I have this compound here, CC(C)Oc1ccccc1N1CCN(CC(O)CNC(=O)c2cccnc2Sc2ccccc2)CC1 (stereo not shown) , and I need its recorded IC50.
Ans. 1220

Qu. I have this compound here, CC(C)Oc1ccccc1N1CCN(C[C@@H](O)CNC(=O)c2cccnc2Oc2ccccc2)CC1 , and I need its recorded IC50.
Ans. 668

Qu. I have this compound here, CC(C)Oc1ccccc1N1CCN(CCCNC(=O)c2cccnc2Oc2ccccc2)CC1 , and I need its recorded IC50.
Ans. 151

====

target: α1a-AR (Homo sapiens, UniProt P35348); construct: expressed in transfected cells; host or cells: COS cells (pcDNA3, transient DEAE-dextran transfection; membranes); experiment: receptor binding assay, [125I]-HEAT, membranes of COS cells expressing α1a-AR; conditions: [125I]-HEAT 50 pM, human α1a-AR in COS cell membranes; unit 'nanomolar'
Sequence (P35348 whole entry): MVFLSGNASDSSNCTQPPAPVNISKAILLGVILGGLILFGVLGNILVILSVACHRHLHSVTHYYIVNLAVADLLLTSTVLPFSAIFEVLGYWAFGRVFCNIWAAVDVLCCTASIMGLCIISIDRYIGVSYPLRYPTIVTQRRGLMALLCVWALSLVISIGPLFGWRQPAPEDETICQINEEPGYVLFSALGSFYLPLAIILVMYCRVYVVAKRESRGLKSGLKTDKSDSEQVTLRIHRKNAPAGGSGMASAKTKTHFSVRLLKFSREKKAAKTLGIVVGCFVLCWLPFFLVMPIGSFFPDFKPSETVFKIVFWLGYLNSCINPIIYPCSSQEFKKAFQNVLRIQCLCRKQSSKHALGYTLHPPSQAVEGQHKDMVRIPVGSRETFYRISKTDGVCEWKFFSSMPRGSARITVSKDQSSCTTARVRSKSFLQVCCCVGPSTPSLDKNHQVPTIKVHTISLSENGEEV
value_type: pIC50
Keep it numeric: pIC50 is minus log10 of the concentration in mol/L.

Qu. Item: Cc1ccc(Oc2ncccc2C(=O)NCCCN2CCN(c3ccccc3OC(C)C)CC2)cc1 Test system: α1a-AR (Homo sapiens, UniProt P35348) Read-out: pIC50 Value: ?
Ans. 9.57

Qu. Item: Cc1ccccc1Oc1ncccc1C(=O)NCC(O)CN1CCN(c2ccccc2OC(C)C)CC1 (centres unmarked) Test system: α1a-AR (Homo sapiens, UniProt P35348) Read-out: pIC50 Value: ?
Ans. 8.96

Qu. Item: CC(C)Oc1ccccc1N1CCN(CC(O)CNC(=O)c2cccnc2Oc2ccc(Cl)cc2)CC1 (centres unmarked) Test system: α1a-AR (Homo sapiens, UniProt P35348) Read-out: pIC50 Value: ?
Ans. 9.00

Qu. Item: CCOc1ccccc1N1CCN(CC(O)CNC(=O)c2cccnc2Oc2ccccc2)CC1 (centres unmarked) Test system: α1a-AR (Homo sapiens, UniProt P35348) Read-out: pIC50 Value: ?
Ans. 8.04

Qu. Item: CC(C)Oc1ccccc1N1CCN(CC(=O)CNC(=O)c2cccnc2Oc2ccccc2)CC1 Test system: α1a-AR (Homo sapiens, UniProt P35348) Read-out: pIC50 Value: ?
Ans. 7.20

Qu. Item: CC(C)Oc1ccccc1N1CCN(CC(O)CNC(=O)c2cccnc2Nc2ccccc2)CC1 (centres unmarked) Test system: α1a-AR (Homo sapiens, UniProt P35348) Read-out: pIC50 Value: ?
Ans. 7.60

Qu. Item: CC(C)Oc1ccccc1N1CCN(CC(O)CNC(=O)c2cccnc2Sc2ccc(Cl)cc2)CC1 (centres unmarked) Test system: α1a-AR (Homo sapiens, UniProt P35348) Read-out: pIC50 Value: ?
Ans. 8.59

Qu. Item: COC(CNC(=O)c1cccnc1Oc1ccccc1)CN1CCN(c2ccccc2OC(C)C)CC1 (centres unmarked) Test system: α1a-AR (Homo sapiens, UniProt P35348) Read-out: pIC50 Value: ?
Ans. 8.62

Qu. Item: CC(C)Oc1ccccc1N1CCN(CC(O)CNC(=O)c2cccnc2Oc2cccc(Cl)c2)CC1 (centres unmarked) Test system: α1a-AR (Homo sapiens, UniProt P35348) Read-out: pIC50 Value: ?
Ans. 9.04

Qu. Item: COc1ccccc1Oc1ncccc1C(=O)NCC(O)CN1CCN(c2ccccc2OC(C)C)CC1 (centres unmarked) Test system: α1a-AR (Homo sapiens, UniProt P35348) Read-out: pIC50 Value: ?
Ans. 8.77

Qu. Item: Cc1ccc(Oc2ncccc2C(=O)NC[C@H](O)CN2CCN(c3ccccc3OC(C)C)CC2)cc1 Test system: α1a-AR (Homo sapiens, UniProt P35348) Read-out: pIC50 Value: ?
Ans. 9.29
